Examples of compounds with documented cytotoxicity at 10 µM follow.
- method.notes: Toxicity liver stage against HepG2, at 10uM
- Format: cell-based
- Parameters: test concentration 10 uM, cell line HepG2-A16-CD81EGFP
- experimental.parameters: human, HepG2-A16-CD81EGFP cells; read-out: INHIBITION
// note: answer is a bare numeric in %

# count of solved cases: 5
compound | readout.unit | cytotoxicity at 10 µM
O=C(c1ccsc1)N1CCc2onc(COc3ccccn3)c2C1 | % | 6.43
COc1nn(C)cc1C(=O)N1CCC(c2ccccc2)C1 (stereo not drawn) | % | -2.18
O=C(Nc1cccc(CNCc2ccccn2)c1)C1CCCC1 | % | -7.63
COCCN1CCCC12CCCN(c1ncccn1)C2 (stereo not drawn) | % | -6.9
COc1cccc(S(=O)(=O)CCN2CCCN(C(C)=O)CC2)c1 | % | -10.4

cytotoxicity at 10 µM for CC(O)CN1CCN(C(=O)CN(C)c2ccc(C#N)cn2)CC1 (stereo not drawn) ?
-0.785

Entry to check: c1cc(CN2CCOCC3(CCNCC3)C2)ccn1
-71

Entry to check: CC(C)Cc1cc(NC(=O)c2cc(Cl)c[nH]2)n(C)n1
-7.94

Entry to check: CCCSCC(=O)N1C[C@@H]2CC[C@H]1CN(Cc1cccnc1)C2
1.64

Entry to check: CCCN(Cc1ccccc1O)S(=O)(=O)C(C)CC (stereo not drawn)
9.02

Entry to check: Cn1ccnc1CN1CCN2C[C@H](Oc3cncnc3)C[C@H]2C1
8.71

Entry to check: NC(=O)NCC(=O)N1C[C@@H]2CC[C@H]1CN(Cc1cscn1)C2
8.86

Entry to check: CC(C)NC(=O)c1cc(Br)c2c(c1)OCCO2
-13.3

###

- method.notes: Toxicity liver stage against HepG2, at 10uM
- Assay type: cell-based
- Set-up: test concentration 10 uM, cell line HepG2-A16-CD81EGFP
- experimental.parameters: human, HepG2-A16-CD81EGFP cells; read-out: INHIBITION
property: cytotoxicity at 10 µM (%)
// note: answer is a bare numeric in %

cytotoxicity at 10 µM for Cc1[nH]ncc1C(=O)N1CCCN(Cc2nccn2C(C)C)CC1 ?
-6.33

Entry to check: CC(=O)NCC(=O)N1Cc2ccnn2CC(COCCN(C)C)C1 (stereo not given)
6.15

Entry to check: Cc1ccc(C)c(NC(=O)c2n[nH]c(-n3cnnc3)n2)c1
3.43

Entry to check: O=C(CSc1ccccc1F)NS(=O)(=O)c1ccc2c(c1)OCCO2
-4.36

Entry to check: CCS(=O)(=O)N1CCC(c2nnc(CN3CCCCCC3)n2C)CC1
-8.01

Entry to check: Cc1nc(C(=O)N2CCN(C(=O)C3CCC3)[C@@H]3CS(=O)(=O)C[C@@H]32)cs1
12.5

Entry to check: Cn1cc(C2CCCN2CCc2nc3ccccc3c(=O)[nH]2)cn1 (stereo not given)
-12.9

Entry to check: CC(C)(C)SCC(=O)Nc1cc(-n2nnnc2C2CC2)ccc1F
-12

Entry to check: OCCN1CCN(Cc2coc(-c3ccccc3)n2)CC1
-5.03

Entry to check: CC(O)CNC(=O)NCc1ccc(N2CCNC(=O)C2)cc1 (stereo not given)
-7.23

###

Examples of molecules with documented cytotoxicity at 10 µM follow.
- method.notes: Toxicity liver stage against HepG2, at 10uM
- Format: cell-based
- Design: test concentration 10 uM, cell line HepG2-A16-CD81EGFP
- experimental.parameters: human, HepG2-A16-CD81EGFP cells; read-out: INHIBITION
// note: answer is a bare numeric in %

molecule | reported
O=c1cnc2ccccc2n1CCCn1ccnc1 | -3.85
Cc1ocnc1C(=O)N1CCC(c2nccn2Cc2ccncc2)CC1 | -8.26
CN1C(=O)CO[C@H](c2ccc(NC(=O)Nc3ccccc3)cc2)[C@H]1CO | -1.63
CC(=O)N1CCC2(CCN(S(=O)(=O)c3ccccc3)CC2)C1 | -2.83

Then there is this molecule:
cytotoxicity at 10 µM for NC(=O)C1CCCN(C(=O)c2ccn(-c3ccc(F)cc3)n2)C1 (stereo not given) ?
-3.63

###

- method.notes: Toxicity liver stage against HepG2, at 10uM
- Assay type: cell-based
- Design: test concentration 10 uM, cell line HepG2-A16-CD81EGFP
- experimental.parameters: human, HepG2-A16-CD81EGFP cells; read-out: INHIBITION
Examples of compounds with documented cytotoxicity at 10 µM follow.
// note: answer is a bare numeric in %

# count of solved cases: 2
compound | cytotoxicity at 10 µM / %
O=S(=O)(c1ccccc1)N1CCC2(CCCN2Cc2cccc(F)c2)C1 (centres undefined) | -68.4
CCc1ccc(C(=O)N2CCN(CC(O)CC)CC2)o1 (centres undefined) | -17.6

cytotoxicity at 10 µM for Cc1ccc(CC(=O)N2CCc3nnc(N(C)C)cc3C2)cn1 ?
-8.16

Entry to check: O=C1CN(c2ccc(CNC(=O)NCc3ccoc3)cc2)CCN1
-1.28

Entry to check: CS(=O)(=O)N1CCc2[nH]cnc2C12CCN(C(=O)c1ccc[nH]1)CC2
-1.42

Entry to check: CNCC1CCC(c2cc(CN(C)C(=O)c3cnccn3)n(C)n2)CC1 (centres undefined)
-5.1

Entry to check: Nc1ccnn1C1CCN(Cc2ccccc2)C1 (centres undefined)
6.36

Entry to check: CN(C)C[C@]12COC[C@H]1CN(C(=O)Cc1ccc3c(c1)OCO3)C2
-9.94

Entry to check: CC(O)(CNC(=O)c1cccnc1-n1cccn1)c1cccs1 (centres undefined)
7.9

Entry to check: Cc1cc(C)n(CC2CN(CCc3ccncc3)CCO2)n1 (centres undefined)
0.347

###

- method.notes: Toxicity liver stage against HepG2, at 10uM
- Type: cell-based
- Parameters: test concentration 10 uM, cell line HepG2-A16-CD81EGFP
- experimental.parameters: human, HepG2-A16-CD81EGFP cells; read-out: INHIBITION
property: cytotoxicity at 10 µM (%)
// note: answer is a bare numeric in %

molecule | readout.unit | cytotoxicity at 10 µM
CC(O)CN1CCN(C(=O)c2sccc2C2CC2)CC1 (centres undefined) | % | 1.83
Cc1nc[nH]c1-c1nccn1-c1cccc(CN2CCCC2)c1 | % | 4.36

cytotoxicity at 10 µM for CC(C)c1nn(C)c(N(C)C)c1CNCc1ccnc(N(C)C)c1 ?
1.36

Entry to check: CC1(c2ccccc2)CCC(=O)N(CCN2CCOCC2)C1 (centres undefined)
-8.65

###

Examples of compounds with documented cytotoxicity at 10 µM follow.
- method.notes: Toxicity liver stage against HepG2, at 10uM
- Assay type: cell-based
- Design: test concentration 10 uM, cell line HepG2-A16-CD81EGFP
- experimental.parameters: human, HepG2-A16-CD81EGFP cells; read-out: INHIBITION
// note: answer is a bare numeric in %

compound | readout.unit | reported
O=c1ccc(-c2cccs2)nn1CN1CCN(C2CCS(=O)(=O)C2)CC1 (stereo not drawn) | % | 9.99
O=C(NCc1nc2ccccc2[nH]1)c1cnn2c1OCCC2 | % | 0.0962
COc1ccccc1OCCCc1cccc(C#N)n1 | % | -5.62
O=C(CCCNC(=O)Nc1ccc(F)cc1F)Nc1cn[nH]c1 | % | 9.19
CNC(=O)c1ccc(OC2CCN(S(C)(=O)=O)CC2)c(Cl)c1 | % | 1.49

cytotoxicity at 10 µM for Cc1ccoc1C(=O)N1Cc2c(CN3CCCCC3)nn(C)c2C1 ?
-1.16

Entry to check: Cc1nn2cnnc2c(C)c1CCC(=O)Nc1nnc(C2CC2)s1
-2.89

###

Examples of compounds with documented cytotoxicity at 10 µM follow.
- method.notes: Toxicity liver stage against HepG2, at 10uM
- Assay type: cell-based
- Parameters: test concentration 10 uM, cell line HepG2-A16-CD81EGFP
- experimental.parameters: human, HepG2-A16-CD81EGFP cells; read-out: INHIBITION
// note: answer is a bare numeric in %

# count of solved cases: 5
compound | cytotoxicity at 10 µM (%)
COc1ccc(F)c(CN2CCCC(O)(CNCc3ccon3)C2=O)c1 (configuration not stated) | 53.6
O=C(c1ccnnc1)N1C[C@@H]2COC[C@]2(COCC2CC2)C1 | -73.2
CCc1nc(C)sc1CN1C[C@@H](C)[C@@](C)(O)C1 | -1.47
CSC(C)(C)CNC(=O)NC1CCN(CC=C(C)C)CC1 | -6.45
CC(=O)N1CCCC(c2cnc(-c3c(C)nn(C)c3C)cn2)C1 (configuration not stated) | 1.95

cytotoxicity at 10 µM for COc1cccc(N2CC3(CCN(c4cnccn4)C3)CC2=O)c1 (configuration not stated) ?
0.0227

Entry to check: CN(C)C(=O)c1ccc(N2CCC3(CCC(=O)N(CCO)C3)CC2)nc1
3.8
